SUBJECT_OF_TEST: T1, human heparanase as used in the cross species capture ELISA (human, UniProt Q9Y251 36-543, limits assumed)
T1 construct: Captured on plates by a rabbit anti-heparanase antibody
T1 sequence (looked up): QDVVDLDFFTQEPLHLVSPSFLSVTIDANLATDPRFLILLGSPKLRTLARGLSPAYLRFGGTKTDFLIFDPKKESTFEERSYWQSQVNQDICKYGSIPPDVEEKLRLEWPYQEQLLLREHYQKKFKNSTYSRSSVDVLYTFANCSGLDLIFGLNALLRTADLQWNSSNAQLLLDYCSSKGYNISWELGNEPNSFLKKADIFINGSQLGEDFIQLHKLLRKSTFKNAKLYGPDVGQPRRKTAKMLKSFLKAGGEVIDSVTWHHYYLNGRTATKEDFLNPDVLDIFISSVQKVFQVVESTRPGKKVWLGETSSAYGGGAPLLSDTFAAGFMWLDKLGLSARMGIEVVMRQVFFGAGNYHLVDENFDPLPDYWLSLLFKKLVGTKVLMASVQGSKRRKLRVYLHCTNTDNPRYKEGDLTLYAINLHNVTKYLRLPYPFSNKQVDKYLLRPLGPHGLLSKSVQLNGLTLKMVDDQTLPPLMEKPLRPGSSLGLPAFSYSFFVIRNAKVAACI
TEST_DETAILS: cross species capture ELISA, heparanase captured by rabbit anti-heparanase antibody, exhaustive supernatant 1:5, anti-human IgG Fc detection

# BINDER, OD, binding to heparanase (Human)
measured = [
    ("monoclonal antibody 16G1.1 (antibody, V domains shown, Fully human (XenoMouse) antibody) VH: QVQLVESGGGVVQPGRSLRLSCAASGFTFSSYGMHWVRQAPGKGLEWVAVIWYDGSNKYYADSVKGRFTISRDNSKNTLNLQMNSLRAEDTAVYYCGRDPGTYHYYYHGMDVWGQGTTVTVSS VL: YIVMTQSPLSLPVTPGEPASISCRSSQSLLHSNGYNFLDWYLQKPGQSPQLLIYLGSNRASGVPDRFSGSGSGTDFTLKINRVEAEDVGVYYCMQALQTPITFGQGTRLEIK", "1.84 OD units"),
]

Value source: patent US20100233154A1
